Below, each entry is listed alongside its reported hERG current change (%, negative = inhibition) at 10uM.
Molecular target: human ether-à-go-go-related gene (hERG) potassium channel (human, UniProt Q12809);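 note: peak tail current of the secondary pulse compared with the same well before compound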
Sequence (Q12809 whole entry, looked up): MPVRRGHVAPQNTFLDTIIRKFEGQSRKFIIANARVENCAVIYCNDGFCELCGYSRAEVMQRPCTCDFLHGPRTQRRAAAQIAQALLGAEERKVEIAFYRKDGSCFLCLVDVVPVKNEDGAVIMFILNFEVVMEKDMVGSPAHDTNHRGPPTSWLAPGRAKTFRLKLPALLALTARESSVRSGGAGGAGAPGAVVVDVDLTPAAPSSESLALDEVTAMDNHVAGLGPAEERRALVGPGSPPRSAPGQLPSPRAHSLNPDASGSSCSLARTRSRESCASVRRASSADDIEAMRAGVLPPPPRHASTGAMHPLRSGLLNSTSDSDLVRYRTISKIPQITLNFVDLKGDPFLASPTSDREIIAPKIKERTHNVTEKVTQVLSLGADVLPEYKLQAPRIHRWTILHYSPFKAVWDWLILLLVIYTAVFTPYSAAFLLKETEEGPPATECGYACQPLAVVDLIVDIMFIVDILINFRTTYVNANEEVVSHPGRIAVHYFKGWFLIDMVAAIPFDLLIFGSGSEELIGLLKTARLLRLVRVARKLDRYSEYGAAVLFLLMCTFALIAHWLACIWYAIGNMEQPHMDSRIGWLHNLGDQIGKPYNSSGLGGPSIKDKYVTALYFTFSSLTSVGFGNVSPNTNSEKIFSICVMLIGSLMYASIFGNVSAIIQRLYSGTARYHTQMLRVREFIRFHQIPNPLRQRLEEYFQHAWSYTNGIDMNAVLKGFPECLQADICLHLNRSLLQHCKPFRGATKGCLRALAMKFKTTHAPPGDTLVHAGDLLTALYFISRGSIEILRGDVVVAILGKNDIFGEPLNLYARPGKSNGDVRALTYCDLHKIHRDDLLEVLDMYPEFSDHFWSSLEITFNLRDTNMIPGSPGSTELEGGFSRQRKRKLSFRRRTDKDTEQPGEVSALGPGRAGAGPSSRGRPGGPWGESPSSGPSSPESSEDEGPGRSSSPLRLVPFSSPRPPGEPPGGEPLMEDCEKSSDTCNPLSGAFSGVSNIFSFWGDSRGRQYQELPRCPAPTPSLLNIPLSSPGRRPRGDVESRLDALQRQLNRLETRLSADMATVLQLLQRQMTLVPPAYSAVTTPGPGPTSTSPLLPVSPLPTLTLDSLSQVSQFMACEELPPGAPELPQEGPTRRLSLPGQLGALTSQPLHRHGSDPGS
Test: primary screen, population patch clamp on CHO cells stably expressing hERG; higher = less effect of the substance
Description: Briefly, Chinese hamster ovary (CHO) cells stably expressing the hERG channel were dislodged from tissue culture flasks and dispensed into PPC plates. […] During the recording, background leak currents were estimated by a 100 ms step to -80 mV from an initial holding potential of -70 mV and subtracted from the subsequent current measurement. The campaign was conducted in two phases using slight differences in recording protocol. […]
The whole screen tested about 310,000 compounds, of which about 14,000 (4.5%) showed an effect of 50% or more. The effect is printed as a negative number. This excerpt belongs to a sample that is enriched for strong results.
Write the value in % as a bare number.

// worked examples, hERG current change (%, negative = inhibition) at 10uM included
CCOC(=O)C1(Cc2cccc(OC)c2)CCN(Cc2cccc3cnccc23)CC1 = -39.3
CCC(=O)N1CCc2cc(S(=O)(=O)CCC(=O)N3CCN(c4ccc(F)cc4)CC3)ccc21 = -2.82

Q: Given the entry `CCOC(=O)COc1ccc(Oc2nc(C)cc(OC)n2)nn1` , report its measured hERG current change (%, negative = inhibition) at 10uM.
Result: -7.8

Q: Reported hERG current change (%, negative = inhibition) at 10uM for `CC(C)C(=O)NN(C(=O)c1ccccc1)c1ccccc1` : what is it?
Result: 20.4

Q: For the compound `CCOC(=O)C1(Cc2ccccc2)CCN(Cc2cccc3nccnc23)CC1` , what hERG current change (%, negative = inhibition) at 10uM is on record?
Result: -59.9

* * *

molecular target: human ether-à-go-go-related gene (hERG) potassium channel (human); experiment: primary screen, population patch clamp on CHO cells stably expressing hERG; higher = less effect of the substance;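 note: peak tail current of the secondary pulse compared with the same well before compound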
In all, about 310,000 compounds went through this assay and about 14,000 (4.5%) showed an effect of 50% or more. The effect is printed as a negative number. Only a selection was taken, and strong results are over-represented in it overall.
Documented hERG current change (%, negative = inhibition) at 10uM across a set of compounds
// units = %; emit number, no label

CCOC(=O)N1CCN(C(=O)C2CCN(Cc3nc(-c4ccccc4C)oc3C)CC2)CC1 = -58.3
Cl.O=C(c1ccccc1)N1CCN(CC(O)COc2cccc3ccccc23)CC1 (stereo not shown) = -28.1
O=C(NCc1cccs1)Nc1ccc(Cl)cc1 = -21.2
Brc1c(-c2ccccc2)nc2n1Cc1ccccc1-2 = 21.8
COC(=O)c1ccc(OCC(O)CN2CCN(C(=O)c3ccco3)CC2)cc1.O=C(O)C(=O)O (stereo not shown) = -25.3

Q: Lab note: need hERG current change (%, negative = inhibition) at 10uM for CCC(Sc1nnc(C)c(=O)[nH]1)C(=O)Nc1cccc2ccccc12 (stereo not shown) on human ether-à-go-go-related gene (hERG) potassium channel (human), anyone have it?
Result: 10

Q: Return hERG current change (%, negative = inhibition) at 10uM measured with human ether-à-go-go-related gene (hERG) potassium channel (human) given this compound: `CCCOc1ccc(/C=N\NC(=O)CCc2n[nH]c(=O)[nH]c2=O)cc1OC`
Result: 2.51

* * *

Entries and their measured hERG current change (%, negative = inhibition) at 10uM follow.
target: human ether-à-go-go-related gene (hERG) potassium channel (human); assay: primary screen, population patch clamp on CHO cells stably expressing hERG; higher = less effect of the substance;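 note: peak tail current of the secondary pulse compared with the same well before compound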
In all, about 310,000 compounds went through this assay and about 14,000 (4.5%) showed an effect of 50% or more. The effect is printed as a negative number. The entries come from a sample that favours strong results as a whole.
# unit: % | format: bare number

O=C(CSc1nc2ccccc2c(=O)n1CCCC(=O)N1CCCC1)NCc1ccco1 = -62.4
Cc1ccc(-c2csc(NC(=O)c3ccccc3Cl)c2C(=O)O)cc1 = 20.8
CCOc1ccc(CN2CCN(Cc3cn(CC)nc3C)CC2CCO)cc1 (stereo not drawn) = -62
Cc1ccc(C2CC(c3cccs3)=NN2C(=O)CSC2=NCCS2)cc1 (stereo not drawn) = -2.21
OC(COc1cccc2ccccc12)CN1CCN(c2ccc(Cl)cc2)CC1 (stereo not drawn) = -3.42

Q: What value of hERG current change (%, negative = inhibition) at 10uM has been recorded for this entry: `Cc1ccc(CNC(=O)CSc2nc3ccccc3c(=O)n2CCCO)cc1`
Result: -73

Q: What does the record list as hERG current change (%, negative = inhibition) at 10uM for `COc1cc(NC(=O)COC(=O)c2ccccc2SCC(=O)N2CCCC2)cc(OC)c1` ?
Result: -25.7

Q: Looking for the measured hERG current change (%, negative = inhibition) at 10uM of `N#CCSc1nc2ccccc2c(=O)n1CCCC(=O)NCc1ccco1` , can you help?
Result: -33.7

Q: Value lookup for hERG current change (%, negative = inhibition) at 10uM; key = CCCCC1(C(=O)OC)NC(c2ccc(O)cc2)C2C(=O)N(c3ccccc3)C(=O)C21 (stereo not drawn)
Result: 2.03

Q: # get_value(readout='hERG current change (%, negative = inhibition) at 10uM', item= Cc1ccccc1OCC(O)CN1CCN(c2ccc(Cl)cc2)CC1 (stereo not drawn) )
Result: -66.3

Q: Report hERG current change (%, negative = inhibition) at 10uM for `CC(=O)Nc1ccc(NC(=O)COC(=O)c2ccccc2SCC(=O)N2CCCC2)cc1` please.
Result: 5.48

Q: Given CC1CN(CC(O)COc2ccccc2C(C)(C)C)CC(C)O1.Cl (stereo not drawn) , state its recorded hERG current change (%, negative = inhibition) at 10uM.
Result: -10.1

Q: Would you kindly share the measured hERG current change (%, negative = inhibition) at 10uM for Cc1cccc(OCC(O)CN2C(C)(C)CC(O)CC2(C)C)c1 (stereo not drawn) ?
Result: -33.2

Values compiled from paper PMC4336329.
